We begin with a simple list: items and their reported ED50.
Test system: mice
ASSAY_PROCEDURE: Inhibition of locomotor activity in mice (McLean et al.)
Type: in vivo
CONDITION_PARAMETERS: Mus musculus; mice, IP; read-out: Inhibition of Locomotor Activity in Mice ED50
Please give a number only; it is taken to be in mg/kg.

Solved entries (count: 2):
1. Fc1ccc(C2=CCC(CCN3CCN(c4ccccn4)CC3)CC2)cc1 (racemic) [Example 2e] ... 2.9
2. C1=C(c2ccccn2)CCC(N2CCN(c3ccccn3)CC2)C1 (racemic) [Example 1a] ... 0.9

Value of ED50 reported for the molecule C1=C(c2cccs2)CCC(CCN2CCN(c3ccccn3)CC2)C1 (racemic) [Example 2c] is 8.4

For C1=C(c2ccccn2)CCC(CCN2CCN(c3ccccn3)CC2)C1 (racemic) [Example 1b] the molecule record lists ED50 as 0.4

Reference source for all entries: patent US4975445A
